The reported numbers originate from ChEMBL document CHEMBL1152880.

- Organism: Homo sapiens
- testMethodNotes: Selectivity ratio of Ki for human adenosine A1 receptor to Ki for human recombinant adenosine A2A receptor
endpointName: Ratio Ki

The cases that follow already have their Ratio Ki on record.
COc1cccc(-n2c(=O)n(Cc3c(F)cccc3F)c3cnc(NCc4cccnc4)nc32)c1: 20
COCCNc1ncc2c(n1)n(-c1cccc(OC)c1)c(=O)n2Cc1c(F)cccc1F: 14

A: COc1ccccc1Cn1c(=O)n(-c2cccc(C)c2)c2nc(NC3CC3)ncc21
B: CCNc1ncc2c(n1)n(-c1cccc(OC)c1)c(=O)n2Cc1c(F)cccc1F
C: COc1cccc(-n2c(=O)n(Cc3c(F)cccc3F)c3cnc(NC(C)C)nc32)c1
Sort by Ratio Ki, descending. Answer format: the labels, ordered as requested.
B, C, A
(B: 34, C: 10, A: 6)

a: COc1ccccc1Cn1c(=O)n(-c2cccc(OC(F)(F)F)c2)c2nc(NC3CC3)ncc21
b: COc1cccc(-n2c(=O)n(Cc3c(F)cccc3F)c3cnc(NCCN(C)C)nc32)c1
Would you kindly point out which of a and b has the smaller Ratio Ki figure? Answer by quoting the chosen item's label.
a
(a: 25, b: 38)

###

- Species: Homo sapiens
- testMethodNotes: Selectivity ratio of Ki for human adenosine A1 receptor to Ki for human recombinant adenosine A2A receptor
endpointName: Ratio Ki

Before answering, review these 5 worked examples.
COc1cccc(-n2c(=O)n(Cc3ccccc3Cl)c3cnc(NC4CC4)nc32)c1: 33
COc1cccc(-n2c(=O)n(Cc3c(F)cccc3F)c3cnc(NCCc4ccccn4)nc32)c1: 23
COc1cc(OC)cc(-n2c(=O)n(Cc3ccccc3OC)c3cnc(NC4CC4)nc32)c1: 61
COc1cccc(-n2c(=O)n(Cc3c(F)cccc3F)c3cnc(NCc4ccccc4)nc32)c1: 42
COc1cccc(-n2c(=O)n(Cc3c(F)cccc3F)c3cnc(Nc4cccnc4)nc32)c1: 17

A: COc1ccccc1Cn1c(=O)n(-c2cccc(C#N)c2)c2nc(NC3CC3)ncc21
B: COc1cccc(-n2c(=O)n(Cc3c(F)cccc3OC)c3cnc(NC4CC4)nc32)c1
C: COc1cccc(-n2c(=O)n(Cc3c(F)cccc3F)c3cnc(NCC4CC4)nc32)c1
Number of compounds to sort: 3. Sort criterion: Ratio Ki, ascending. Please list the labels in the order you were asked to rank them.
A, C, B

###

- Organism: Homo sapiens
- testMethodNotes: Selectivity ratio of Ki for human adenosine A1 receptor to Ki for human recombinant adenosine A2A receptor
endpointName: Ratio Ki

Worked set:
COc1cccc(-n2c(=O)n(Cc3c(F)cccc3F)c3cnc(NC4CCCC4)nc32)c1: 5
COc1cccc(-n2c(=O)n(Cc3ccccc3F)c3cnc(NC4CC4)nc32)c1: 6
COc1cccc(-n2c(=O)n(Cc3c(F)cccc3F)c3cnc(NCc4ccncc4)nc32)c1: 24

a: CNc1ncc2c(n1)n(-c1cccc(OC)c1)c(=O)n2Cc1c(F)cccc1F
b: COc1ccccc1Cn1c(=O)n(-c2cccc(F)c2)c2nc(NC3CC3)ncc21
Returns: the label, a or b , whose recorded Ratio Ki is the lower number. In your reply, give the label of the chosen option.
b
(b: 7, a: 49)

I: COc1cccc(-n2c(=O)n(Cc3c(F)cccc3F)c3cnc(NC4CC4)nc32)c1
II: COc1cccc(-n2c(=O)n(-c3ccccc3OC)c3cnc(NC4CC4)nc32)c1
Higher Ratio Ki: I or II ? Lab log: write the label of the selected item as the result.
I
(I: 59, II: 0.2)

a: COc1cccc(-n2c(=O)n(Cc3ccccc3OC)c3cnc(NC4CC4)nc32)c1
b: COc1cccc(-n2c(=O)n(Cc3ccccc3)c3cnc(NC4CC4)nc32)c1
Hi team, can someone confirm which has the larger Ratio Ki: a or b ? Thanks. // output: label of the selected item
a
(a: 17, b: 10)
